Each item that follows carries a reported IC50.
- Tgt: CCK-B receptor (Rattus norvegicus, UniProt P30553)
- Construct: the whole brain was immediately excised from each of the rats and homogenized
- Sequence (P30553 whole entry): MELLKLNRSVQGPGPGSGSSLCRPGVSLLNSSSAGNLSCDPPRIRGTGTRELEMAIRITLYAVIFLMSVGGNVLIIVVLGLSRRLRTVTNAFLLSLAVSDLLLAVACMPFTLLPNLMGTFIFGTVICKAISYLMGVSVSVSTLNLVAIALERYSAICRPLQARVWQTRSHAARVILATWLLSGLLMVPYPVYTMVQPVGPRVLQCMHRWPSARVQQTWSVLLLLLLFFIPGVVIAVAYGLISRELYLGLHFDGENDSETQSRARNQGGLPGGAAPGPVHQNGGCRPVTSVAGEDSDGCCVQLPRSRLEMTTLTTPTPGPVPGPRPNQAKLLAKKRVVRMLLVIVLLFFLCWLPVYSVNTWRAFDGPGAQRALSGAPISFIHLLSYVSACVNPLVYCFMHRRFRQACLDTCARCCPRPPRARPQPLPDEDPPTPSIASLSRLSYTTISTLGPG
- Test Summary: Measurement of Binding Affinity for CCK-B Receptors ([125I]BH-CCK-8 displacement, rat brain membranes)
- Test Parameters: SD rat brain membranes, [125I]BH-CCK-8, 25° C., 120 min, pH 6.5
Hi! Could you send only the number? It should be in nM, unit omitted.

Please review the following examples before continuing.
1. Cc1cccc(NC(=O)NC2N=C(c3ccccc3)c3ccccc3N(CC(=O)CC3CCCCC3)C2=O)c1 (racemic): 0.28
2. Cc1cccc(NC(=O)NC2N=C(c3ccccc3)c3ccccc3N(CC(=O)C3(C)CCCCC3)C2=O)c1 (racemic): 0.38
3. Cc1cccc(NC(=O)NC2N=C(c3ccccn3)c3ccccc3N(CC(=O)C3CCCC3)C2=O)c1 (racemic): 0.12

We next turn to a different compound, shown below.
*Q* Provide value of IC50 for this record tested with CCK-B receptor (Rattus norvegicus, UniProt P30553): Cc1cccc(NC(=O)NC2N=C(c3ccccc3)c3ccccc3N(CC(=O)C3CCCC3)C2=O)c1 (racemic)
*A* 0.23
